Test system: M. avium (ATCC 25291)
I'd appreciate it if you marked entries YES when MIC is lower than 0.4 µg/mL and NO when it is not.

Exercise: Is MIC of CO[C@H]1/C=C/O[C@@]2(C)Oc3c(C)c(O)c4c(c3C2=O)C2=NC3(CCN(CC(C)C)CC3)NC2=C(NC(=O)/C(C)=C\C=C\[C@H](C)[C@H](O)[C@@H](C)[C@@H](O)[C@@H](C)[C@H](OC(=O)CN2CCc3[nH]c5ccccc5c3C2)[C@@H]1C)C4=O strictly below 0.4 µg/mL?
Key: YES

Exercise: Is MIC of CO[C@H]1/C=C/O[C@@]2(C)Oc3c(C)c(O)c4c(c3C2=O)C2=NC3(CCN(CC(C)C)CC3)NC2=C(NC(=O)/C(C)=C\C=C\[C@H](C)[C@H](O)[C@@H](C)[C@@H](O)[C@@H](C)[C@H](OC(=O)CN2CCC3(CC2)C(=O)NCN3c2ccccc2)[C@@H]1C)C4=O strictly below 0.4 µg/mL?
Key: NO

Exercise: Is MIC of CO[C@H]1/C=C/O[C@@]2(C)Oc3c(C)c(O)c4c(c3C2=O)C2=NC3(CCN(CC(C)C)CC3)NC2=C(NC(=O)/C(C)=C\C=C\[C@H](C)[C@H](O)[C@@H](C)[C@@H](O)[C@@H](C)[C@H](OC(=O)CN2CCCN(c3ccc(F)cc3)CC2)[C@@H]1C)C4=O strictly below 0.4 µg/mL?
Key: NO

Exercise: Is MIC of CO[C@H]1/C=C/O[C@@]2(C)Oc3c(C)c(O)c4c(c3C2=O)C2=NC3(CCN(CC(C)C)CC3)NC2=C(NC(=O)/C(C)=C\C=C\[C@H](C)[C@H](O)[C@@H](C)[C@@H](O)[C@@H](C)[C@H](OC(=O)CN2CCN(CC3CCCCC3)CC2)[C@@H]1C)C4=O strictly below 0.4 µg/mL?
Key: YES

Exercise: Is MIC of CO[C@H]1/C=C/O[C@@]2(C)Oc3c(C)c(O)c4c(c3C2=O)C2=NC3(CCN(CC(C)C)CC3)NC2=C(NC(=O)/C(C)=C\C=C\[C@H](C)[C@H](O)[C@@H](C)[C@@H](O)[C@@H](C)[C@H](OC(=O)CNCCN2CCOCC2)[C@@H]1C)C4=O strictly below 0.4 µg/mL?
Key: NO

----------
Tested on: M. tuberculosis H37Rv (ATCC 27294)
assay-notes: microbe, parasite or virus in culture
Format: cell-based
settings: Mycobacterium tuberculosis, 120 h
Field: MIC. Provide a value for each of the compounds that follow.
# unit: ng/mL | format: bare number

Exercise: State its MIC: CO[C@H]1/C=C/O[C@@]2(C)Oc3c(C)c(O)c4c(c3C2=O)C2=NC3(CCN(CC(C)C)CC3)NC2=C(NC(=O)/C(C)=C\C=C\[C@H](C)[C@H](O)[C@@H](C)[C@@H](O)[C@@H](C)[C@H](OC(=O)CN2CCC(NS(=O)(=O)c3ccccc3)CC2)[C@@H]1C)C4=O
Key: 3

Exercise: State its MIC: CO[C@H]1/C=C/O[C@@]2(C)Oc3c(C)c(O)c4c(c3C2=O)C2=NC3(CCN(CC(C)C)CC3)NC2=C(NC(=O)/C(C)=C\C=C\[C@H](C)[C@H](O)[C@@H](C)[C@@H](O)[C@@H](C)[C@H](OC(=O)CN2CCC(O)(Cc3ccccc3)CC2)[C@@H]1C)C4=O
Key: 4

Exercise: State its MIC: CO[C@H]1/C=C/O[C@@]2(C)Oc3c(C)c(O)c4c(c3C2=O)C2=NC3(CCN(CC(C)C)CC3)NC2=C(NC(=O)/C(C)=C\C=C\[C@H](C)[C@H](O)[C@@H](C)[C@@H](O)[C@@H](C)[C@H](OC(=O)CNCCN2CCOCC2)[C@@H]1C)C4=O
Key: 8

Exercise: State its MIC: CO[C@H]1/C=C/O[C@@]2(C)Oc3c(C)c(O)c4c(c3C2=O)C2=NC3(CCN(CC(C)C)CC3)NC2=C(NC(=O)/C(C)=C\C=C\[C@H](C)[C@H](O)[C@@H](C)[C@@H](O)[C@@H](C)[C@H](OC(=O)CNC2CCN(C)CC2)[C@@H]1C)C4=O
Key: 20

Exercise: State its MIC: CO[C@H]1/C=C/O[C@@]2(C)Oc3c(C)c(O)c4c(c3C2=O)C2=NC3(CCN(CC(C)C)CC3)NC2=C(NC(=O)/C(C)=C\C=C\[C@H](C)[C@H](O)[C@@H](C)[C@@H](O)[C@@H](C)[C@H](OC(=O)CN2CCC(Oc3ccccc3)CC2)[C@@H]1C)C4=O
Key: 8

Exercise: State its MIC: CO[C@H]1/C=C/O[C@@]2(C)Oc3c(C)c(O)c4c(c3C2=O)C2=NC3(CCN(CC(C)C)CC3)NC2=C(NC(=O)/C(C)=C\C=C\[C@H](C)[C@H](O)[C@@H](C)[C@@H](O)[C@@H](C)[C@H](OC(=O)CN2CCN(C)CC2)[C@@H]1C)C4=O
Key: 8

Source of measurements: patent US20250235434A1
